target: T1, STnMUC1 peptide, biotinylated; assay: SPR (Biacore T200): biotinylated STnMUC1 peptide (35-1) captured on CAP chip, scFv as analyte, 1:1 fit, average
T1 construct: also called STn peptide; 35-1
T1 sequence (main, as listed by the source): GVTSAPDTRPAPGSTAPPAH
Form field: koff (one value per entry).

humanised anti-TnMUC1 scFv protein 13P18 (19A), L2-H5 (scFv, Supernatant of construct 6D18 in the Octet assay; purified 13P18 elsewhere. scFv of CAR MB025; also called 6D18) scFv: DIVMTQSPDSLAVSLGERATINCKSSQSLLNSGDQKNYLTWYQQKPGQPPKLLIFWASTRESGVPDRFSGSGSGTDFTLTISSLQAEDVAVYYCQNDYSYPLTFGQGTKLEIKGGGGSGGGGSGGGGSGGGGSQVQLVQSGAEVKKPGSSVKVSCKASGYTFTDHAIHWVRQAPGQGLEWIGHFSPGNTDIKYNDKFKGRATLTVDRSTSTAYMELSSLRSEDTAVYFCKTSTFFFDYWGQGTTVTVSSAAAHHHHHH : 0.000423 s⁻¹
humanised anti-TnMUC1 scFv protein 16P4 (82A), L0-H3 (scFv, Supernatant of construct 6D4 in the Octet assay; purified 16P4 elsewhere. scFv of CAR MB021; also called 6D4) scFv: DIVMTQSPDSLAVSLGERATINCKSSQSLLNSGDQKNYLTWYQQKPGQPPKLLIYWASTRESGVPDRFSGSGSGTDFTLTISSLQAEDVAVYYCQNDYSYPLTFGQGTKLEIKGGGGSGGGGSGGGGSGGGGSQVQLVQSGAEVKKPGSSVKVSCKASGYTFTDHAIHWVRQAPGQGLEWMGHFSPGNTDIKYNDKFKGRVTITADKSTSTAYMELSSLRSEDTAVYYCKTSTFFFDYWGQGTTVTVSSAAAHHHHHH : 0.00122 s⁻¹
humanised anti-TnMUC1 scFv protein 13P16 (97A), L2-H3 (scFv, Supernatant of construct 6D16 in the Octet assay; purified 13P16 elsewhere. scFv of CAR MB024; also called 6D16) scFv: DIVMTQSPDSLAVSLGERATINCKSSQSLLNSGDQKNYLTWYQQKPGQPPKLLIFWASTRESGVPDRFSGSGSGTDFTLTISSLQAEDVAVYYCQNDYSYPLTFGQGTKLEIKGGGGSGGGGSGGGGSGGGGSQVQLVQSGAEVKKPGSSVKVSCKASGYTFTDHAIHWVRQAPGQGLEWMGHFSPGNTDIKYNDKFKGRVTITADKSTSTAYMELSSLRSEDTAVYYCKTSTFFFDYWGQGTTVTVSSAAAHHHHHH : 0.00117 s⁻¹

We now examine a further binder.
Input: What does the data say about its koff? Entry: humanised anti-TnMUC1 scFv protein 11P6 (89A), L0-H5 (scFv, Supernatant of construct 6D6 in the Octet assay; purified 11P6 elsewhere; also called 6D6) scFv: DIVMTQSPDSLAVSLGERATINCKSSQSLLNSGDQKNYLTWYQQKPGQPPKLLIYWASTRESGVPDRFSGSGSGTDFTLTISSLQAEDVAVYYCQNDYSYPLTFGQGTKLEIKGGGGSGGGGSGGGGSGGGGSQVQLVQSGAEVKKPGSSVKVSCKASGYTFTDHAIHWVRQAPGQGLEWIGHFSPGNTDIKYNDKFKGRATLTVDRSTSTAYMELSSLRSEDTAVYFCKTSTFFFDYWGQGTTVTVSSAAAHHHHHH
Output: 0.000435 s⁻¹
